Numbers sourced from patent US10800813.

Target under test: T1, human plasma Kallikrein (human, UniProt P03952 20-638, limits assumed)
T1 construct: also called hPK; human PK
T1 sequence (P03952 20-638 limits assumed): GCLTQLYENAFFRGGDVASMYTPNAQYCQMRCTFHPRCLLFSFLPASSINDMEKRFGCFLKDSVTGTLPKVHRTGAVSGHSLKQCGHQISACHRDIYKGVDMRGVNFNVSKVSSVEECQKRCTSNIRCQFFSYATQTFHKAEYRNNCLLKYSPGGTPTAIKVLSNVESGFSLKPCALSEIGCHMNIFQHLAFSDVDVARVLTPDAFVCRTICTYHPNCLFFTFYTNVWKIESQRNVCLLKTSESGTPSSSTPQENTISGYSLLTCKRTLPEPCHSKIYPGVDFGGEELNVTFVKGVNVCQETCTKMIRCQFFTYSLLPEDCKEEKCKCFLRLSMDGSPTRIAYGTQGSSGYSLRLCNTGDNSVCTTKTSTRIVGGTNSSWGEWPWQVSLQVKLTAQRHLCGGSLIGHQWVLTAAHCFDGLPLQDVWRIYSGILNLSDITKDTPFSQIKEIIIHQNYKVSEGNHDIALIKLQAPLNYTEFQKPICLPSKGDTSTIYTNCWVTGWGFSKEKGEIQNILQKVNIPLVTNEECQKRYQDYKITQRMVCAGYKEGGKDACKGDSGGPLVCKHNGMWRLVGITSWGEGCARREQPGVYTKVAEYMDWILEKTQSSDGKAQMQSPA
Procedure details: enzyme inhibition assay
Numbered stars: 1 amine (or outer) side, 2 acyl side, 3 side chain; on linkers, the order of the positions; unused ones are H or OH. Bridge positions count the residues as written; N and C are the ends. Square brackets hold non-standard residues; d marks the D form. Phe(4-guanidino) = N=C(N)Nc1ccc(C[C@H](N)C(=O)O)cc1; TBMB = c1c(C[*:1])cc(C[*:3])cc1C[*:2]; NMeR = CN[C@@H](CCCNC(=N)N)C(=O)O; hArg = N=C(N)NCCCC[C@H](N)C(=O)O; Aze = O=C(O)[C@@H]1CCN1
Answer each item with its documented Ki.
Hi! Could you send only the number? It should be in nM, unit omitted.

Entry Ac-CSW[Aze]A[hArg]CLHQDLC-NH2 (linker 1-7-13 via TBMB; SMILES CC(=O)N[C@H]1CSCc2cc3cc(c2)CSC[C@H](NC(=O)[C@H](CCCCNC(=N)N)NC(=O)[C@H](C)NC(=O)[C@@H]2CCN2C(=O)[C@H](Cc2c[nH]c4ccccc24)NC(=O)[C@H](CO)NC1=O)C(=O)N[C@@H](CC(C)C)C(=O)N[C@@H](Cc1c[nH]cn1)C(=O)N[C@@H](CCC(N)=O)C(=O)N[C@@H](CC(=O)O)C(=O)N[C@@H](CC(C)C)C(=O)N[C@H](C(N)=O)CSC3) [Ac-(06-34-18) Aze3 HomoArg5] has what Ki?
0.14

Entry Ac-CSW[Aze]A[NMeR]CLHQDLC-NH2 (linker 1-7-13 via TBMB; SMILES CC(=O)N[C@H]1CSCc2cc3cc(c2)CSC[C@H](NC(=O)[C@H](CCCNC(=N)N)N(C)C(=O)[C@H](C)NC(=O)[C@@H]2CCN2C(=O)[C@H](Cc2c[nH]c4ccccc24)NC(=O)[C@H](CO)NC1=O)C(=O)N[C@@H](CC(C)C)C(=O)N[C@@H](Cc1c[nH]cn1)C(=O)N[C@@H](CCC(N)=O)C(=O)N[C@@H](CC(=O)O)C(=O)N[C@@H](CC(C)C)C(=O)N[C@H](C(N)=O)CSC3) [Ac-(06-34-18) Aze3 NMeArg5] has what Ki?
1.3

Entry Ac-CSWPARCLHQDLC-NH2 (linker 1-7-13 via TBMB; SMILES CC(=O)N[C@H]1CSCc2cc3cc(c2)CSC[C@H](NC(=O)[C@H](CCCNC(=N)N)NC(=O)[C@H](C)NC(=O)[C@@H]2CCCN2C(=O)[C@H](Cc2c[nH]c4ccccc24)NC(=O)[C@H](CO)NC1=O)C(=O)N[C@@H](CC(C)C)C(=O)N[C@@H](Cc1c[nH]cn1)C(=O)N[C@@H](CCC(N)=O)C(=O)N[C@@H](CC(=O)O)C(=O)N[C@@H](CC(C)C)C(=O)N[C@H](C(N)=O)CSC3, also called Ac-(06-34-18) wildtype; Ac-(06-34-18) WPAR) [Ac-06-34-18(TMB)-NH2] has what Ki?
0.17

Entry Ac-CSWPA[Phe(4-guanidino)]CLHQDLC-NH2 (linker 1-7-13 via TBMB; SMILES CC(=O)N[C@H]1CSCc2cc3cc(c2)CSC[C@H](NC(=O)[C@H](Cc2ccc(NC(=N)N)cc2)NC(=O)[C@H](C)NC(=O)[C@@H]2CCCN2C(=O)[C@H](Cc2c[nH]c4ccccc24)NC(=O)[C@H](CO)NC1=O)C(=O)N[C@@H](CC(C)C)C(=O)N[C@@H](Cc1c[nH]cn1)C(=O)N[C@@H](CCC(N)=O)C(=O)N[C@@H](CC(=O)O)C(=O)N[C@@H](CC(C)C)C(=O)N[C@H](C(N)=O)CSC3) [Ac-(06-34-18) 4GuanPhe5] has what Ki?
0.34

Entry Ac-CSW[Aze]A[Phe(4-guanidino)]CLHQDLC-NH2 (linker 1-7-13 via TBMB; SMILES CC(=O)N[C@H]1CSCc2cc3cc(c2)CSC[C@H](NC(=O)[C@H](Cc2ccc(NC(=N)N)cc2)NC(=O)[C@H](C)NC(=O)[C@@H]2CCN2C(=O)[C@H](Cc2c[nH]c4ccccc24)NC(=O)[C@H](CO)NC1=O)C(=O)N[C@@H](CC(C)C)C(=O)N[C@@H](Cc1c[nH]cn1)C(=O)N[C@@H](CCC(N)=O)C(=O)N[C@@H](CC(=O)O)C(=O)N[C@@H](CC(C)C)C(=O)N[C@H](C(N)=O)CSC3) [Ac-(06-34-18) Aze3 4GuanPhe5] has what Ki?
0.17
